target.or.system: T1, mouse AGR2 (mouse, UniProt O88312 21-175)
T1 construct: Whole entry as named
T1 sequence: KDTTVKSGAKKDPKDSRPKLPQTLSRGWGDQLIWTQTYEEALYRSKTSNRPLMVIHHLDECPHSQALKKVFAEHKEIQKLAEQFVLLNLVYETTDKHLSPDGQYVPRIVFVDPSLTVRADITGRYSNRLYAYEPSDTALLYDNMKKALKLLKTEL
experiment.notes: ELISA, antigen coated at 1 µg/mL, antibody titrated

{"binder": "TH-101 IgG1-LALA humanized monoclonal antibody (antibody, V domains shown) VH: QVQLVQSGAEVKKPGASVKVSCKTSGYVFSRSWMNWVRQAPGQGLEWIGWIYPGDGDTNYNGKFKDRVTLTADKSTSTVYMELSSLRSEDTAVYFCARGGYDGSPWLSYWGQGTLVTVSS VL: DIQMTQSPSSLSASVGDRVTITCKASQDINSYLSWFQQKPGKAPKTLIYRANRLVDGVPSRFSGSGSGQDFTLTISSLQPEDIATYYCLQYDEFPFTFGGGTKVEIKR", "EC50 (nM)": 0.28}
{"binder": "TH-109 IgG1-LALA humanized monoclonal antibody (antibody, V domains shown) VH: QVQLVQSGSELKKPGASVKVSCKTSGYVFSRSWMNWVRQAPGQGLEWIGWIYPGDGDTNYNGKFKDRFVLSADKSVSTVYLQISSLKAEDTAVYFCARGGYDGSPWLSYWGQGTLVTVSS VL: EIVLTQSPATLSLSPGERATLSCKASQDINSYLSWFQQKPGQAPRTLIYRANRLVDGIPARFSGSGSGQDFTLTISSLEPEDFAVYYCLQYDEFPFTFGGGTKVEIKR", "EC50 (nM)": 2.03}
{"binder": "TH-104 IgG1-LALA humanized monoclonal antibody (antibody, V domains shown) VH: QVQLVQSGSELKKPGASVKVSCKTSGYVFSRSWMNWVRQAPGQGLEWIGWIYPGDGDTNYNGKFKDRFVLSADKSVSTVYLQISSLKAEDTAVYFCARGGYDGSPWLSYWGQGTLVTVSS VL: DIQMTQSPSSLSASVGDRVTITCKASQDINSYLSWFQQKPGKAPKTLIYRANRLVDGVPSRFSGSGSGQDFTLTISSLQPEDIATYYCLQYDEFPFTFGGGTKVEIKR", "EC50 (nM)": 0.3}
{"binder": "TH-115 IgG1-LALA humanized monoclonal antibody (antibody, V domains shown) VH: QVQLLESGGGLVKPGGSLRLSCATSGYVFSRSWMNWIRQAPGQGLEWIGWIYPGDGDTNYNGKVKDRFTLSADKAKNSVYLQMNSLRAEDTAVYFCARGGYDGSPWLSYWGQGTLVTVSS VL: EIVLTQSPDFQSVTPKEKVTITCKASQDINSYLSWFQQKPDQSPKTLIYRANRLVDGVPSRFSGSGSGQDFTLTINSLEAEDAATYYCLQYDEFPFTFGGGTKVEIKR", "EC50 (nM)": 0.5}
